Experiment Notes: In vitro metabolic stability in human plasma
Format: in vitro ADME
Measurement Setup: 37°C, 72 ± 2 h, n = 4
Catalogue of molecules with associated Intact compound in human plasma in vitro

Please review the following examples before continuing.
CC(C)C[C@H](NC(=O)C[C@H](O)[C@H](CC(C)C)NC(=O)[C@H](Cc1c[nH]cn1)NC(=O)CNC(=O)[C@@H](NC(=O)[C@H](C)NC(=O)[C@](C)(Cc1c[nH]c2ccccc12)NC(=O)[C@H](CCC(N)=O)NC(=O)[C@@H](Cc1ccccc1)NC(=O)CN1CCC(NC(=O)CCC(C(=O)O)N2CCN(CC(=O)O)CCN(CC(=O)O)CCN(CC(=O)O)CC2)CC1)C(C)C)C(N)=O (stereo partly drawn) [^177Lu-AMTG2, ^177Lu-DOTAGA-α-Me-L-Trp^8-RM2, metal not drawn]; 66.2% ± 5.1%
CC(C)C[C@H](NC(=O)C[C@H](O)[C@H](CC(C)C)NC(=O)[C@H](Cc1c[nH]cn1)NC(=O)CNC(=O)[C@@H](NC(=O)[C@H](C)NC(=O)[C@H](Cc1c[nH]c2ccccc12)NC(=O)[C@H](CCC(N)=O)NC(=O)[C@@H](Cc1ccccc1)NC(=O)CN1CCC(NC(=O)CN2CCN(CC(=O)O)CCN(CC(=O)O)CCN(CC(=O)O)CC2)CC1)C(C)C)C(N)=O [^177Lu-RM2, metal not drawn, reference compound]; 38.7% ± 9.3%
CC(C)C[C@H](NC(=O)C[C@H](O)[C@H](CC(C)C)NC(=O)[C@H](Cc1c[nH]cn1)NC(=O)CNC(=O)[C@@H](NC(=O)[C@H](C)NC(=O)[C@](C)(Cc1c[nH]c2ccccc12)NC(=O)[C@H](CCC(N)=O)NC(=O)[C@@H](Cc1ccccc1)NC(=O)CN1CCC(NC(=O)CN2CCN(CC(=O)O)CCN(CC(=O)O)CCN(CC(=O)O)CC2)CC1)C(C)C)C(N)=O [^177Lu-AMTG, ^177Lu-α-Me-L-Trp^8-RM2, metal not drawn]; 77.7% ± 8.7%

Please look at the following molecule next.
Looking up CC(C)CC(CC(C)C)NC(=O)[C@H](Cc1cnc[nH]1)NC(=O)CNC(=O)[C@@H](NC(=O)[C@H](C)NC(=O)[C@H](Cc1c[nH]c2ccccc12)NC(=O)[C@H](CCC(N)=O)NC(=O)[C@@H](Cc1ccccc1)NC(=O)COCC(=O)Nc1ccc(CNC(=O)CN2CCN(CC(=O)O)CCN(CC(=O)O)CCN(CC(=O)O)CC2)cc1)C(C)C [^177Lu-NeoBOMB1, metal not drawn, reference compound] , I see its Intact compound in human plasma in vitro listed as 61.9% ± 2.1%

====

Experiment Notes: In vivo metabolic stability in murine plasma and urine
Parameters: species or system CB17-SCID mice
Measurement Setup: murine urine, 30 min after injection, n = 3
Recorded Intact tracer in murine urine in vivo values for a group of molecules are listed next.

The molecule identified as CC(C)C[C@H](NC(=O)C[C@H](O)[C@H](CC(C)C)NC(=O)[C@H](Cc1c[nH]cn1)NC(=O)CNC(=O)[C@@H](NC(=O)[C@H](C)NC(=O)[C@H](Cc1c[nH]c2ccccc12)NC(=O)[C@H](CCC(N)=O)NC(=O)[C@@H](Cc1ccccc1)NC(=O)CN1CCC(NC(=O)CN2CCN(CC(=O)O)CCN(CC(=O)O)CCN(CC(=O)O)CC2)CC1)C(C)C)C(N)=O [^177Lu-RM2, metal not drawn, reference compound] registered its Intact tracer in murine urine in vivo at 0.5% ± 0.1%

The molecule listed as CC(C)C[C@H](NC(=O)C[C@H](O)[C@H](CC(C)C)NC(=O)[C@H](Cc1c[nH]cn1)NC(=O)CNC(=O)[C@@H](NC(=O)[C@H](C)NC(=O)[C@](C)(Cc1c[nH]c2ccccc12)NC(=O)[C@H](CCC(N)=O)NC(=O)[C@@H](Cc1ccccc1)NC(=O)CN1CCC(NC(=O)CN2CCN(CC(=O)O)CCN(CC(=O)O)CCN(CC(=O)O)CC2)CC1)C(C)C)C(N)=O [^177Lu-AMTG, ^177Lu-α-Me-L-Trp^8-RM2, metal not drawn] shows Intact tracer in murine urine in vivo equal to 68.2% ± 3.1%

Sure, the documented Intact tracer in murine urine in vivo for CC(C)C[C@H](NC(=O)C[C@H](O)[C@H](CC(C)C)NC(=O)[C@H](Cc1c[nH]cn1)NC(=O)CNC(=O)[C@@H](NC(=O)[C@H](C)NC(=O)[C@](C)(Cc1c[nH]c2ccccc12)NC(=O)[C@H](CCC(N)=O)NC(=O)[C@@H](Cc1ccccc1)NC(=O)CN1CCC(NC(=O)CCC(C(=O)O)N2CCN(CC(=O)O)CCN(CC(=O)O)CCN(CC(=O)O)CC2)CC1)C(C)C)C(N)=O (stereo partly drawn) [^177Lu-AMTG2, ^177Lu-DOTAGA-α-Me-L-Trp^8-RM2, metal not drawn] is 61.6% ± 1.6%

CC(C)CC(CC(C)C)NC(=O)[C@H](Cc1cnc[nH]1)NC(=O)CNC(=O)[C@@H](NC(=O)[C@H](C)NC(=O)[C@H](Cc1c[nH]c2ccccc12)NC(=O)[C@H](CCC(N)=O)NC(=O)[C@@H](Cc1ccccc1)NC(=O)COCC(=O)Nc1ccc(CNC(=O)CN2CCN(CC(=O)O)CCN(CC(=O)O)CCN(CC(=O)O)CC2)cc1)C(C)C [^177Lu-NeoBOMB1, metal not drawn, reference compound] has a reported Intact tracer in murine urine in vivo of 3.9% ± 1.3%

====

Experiment Notes: Biodistribution in PC-3 tumor-bearing CB17-SCID mice
Format: in vivo
Measurement Setup: CB17-SCID, mouse, adrenal, intravenous, 100 pmol, total radioactivity, 24 h after injection, 100 pmol, n = 4; read-out: Biodistribution, Adrenal
molecules and their reported tissue uptake at 24 h
Provide only the numeric value, understood in %ID/g.

Before answering, review these 2 worked examples.
CC(C)C[C@H](NC(=O)C[C@H](O)[C@H](CC(C)C)NC(=O)[C@H](Cc1c[nH]cn1)NC(=O)CNC(=O)[C@@H](NC(=O)[C@H](C)NC(=O)[C@](C)(Cc1c[nH]c2ccccc12)NC(=O)[C@H](CCC(N)=O)NC(=O)[C@@H](Cc1ccccc1)NC(=O)CN1CCC(NC(=O)CCC(C(=O)O)N2CCN(CC(=O)O)CCN(CC(=O)O)CCN(CC(=O)O)CC2)CC1)C(C)C)C(N)=O (stereo partly drawn) [^177Lu-AMTG2, ^177Lu-DOTAGA-α-Me-L-Trp^8-RM2, metal not drawn]; 0.26
CC(C)C[C@H](NC(=O)C[C@H](O)[C@H](CC(C)C)NC(=O)[C@H](Cc1c[nH]cn1)NC(=O)CNC(=O)[C@@H](NC(=O)[C@H](C)NC(=O)[C@](C)(Cc1c[nH]c2ccccc12)NC(=O)[C@H](CCC(N)=O)NC(=O)[C@@H](Cc1ccccc1)NC(=O)CN1CCC(NC(=O)CN2CCN(CC(=O)O)CCN(CC(=O)O)CCN(CC(=O)O)CC2)CC1)C(C)C)C(N)=O [^177Lu-AMTG, ^177Lu-α-Me-L-Trp^8-RM2, metal not drawn]; 0.46

// next entry
Lookup result for CC(C)C[C@H](NC(=O)C[C@H](O)[C@H](CC(C)C)NC(=O)[C@H](Cc1c[nH]cn1)NC(=O)CNC(=O)[C@@H](NC(=O)[C@H](C)NC(=O)[C@H](Cc1c[nH]c2ccccc12)NC(=O)[C@H](CCC(N)=O)NC(=O)[C@@H](Cc1ccccc1)NC(=O)CN1CCC(NC(=O)CN2CCN(CC(=O)O)CCN(CC(=O)O)CCN(CC(=O)O)CC2)CC1)C(C)C)C(N)=O [^177Lu-RM2, metal not drawn, reference compound] ; measured tissue uptake at 24 h: 0.8

====

Experiment Notes: Biodistribution in PC-3 tumor-bearing CB17-SCID mice
Type: in vivo
Measurement Setup: CB17-SCID, mouse, stomach, intravenous, 100 pmol, total radioactivity, 24 h after injection, 100 pmol, n = 4; read-out: Biodistribution, Stomach
Each entry below lists one item and its recorded tissue uptake at 24 h value.
Field format: number, assumed %ID/g, no unit text.

CC(C)C[C@H](NC(=O)C[C@H](O)[C@H](CC(C)C)NC(=O)[C@H](Cc1c[nH]cn1)NC(=O)CNC(=O)[C@@H](NC(=O)[C@H](C)NC(=O)[C@](C)(Cc1c[nH]c2ccccc12)NC(=O)[C@H](CCC(N)=O)NC(=O)[C@@H](Cc1ccccc1)NC(=O)CN1CCC(NC(=O)CCC(C(=O)O)N2CCN(CC(=O)O)CCN(CC(=O)O)CCN(CC(=O)O)CC2)CC1)C(C)C)C(N)=O (stereo partly drawn) [^177Lu-AMTG2, ^177Lu-DOTAGA-α-Me-L-Trp^8-RM2, metal not drawn]; 0.12

Please find the next molecule below.
The reported tissue uptake at 24 h of the molecule CC(C)C[C@H](NC(=O)C[C@H](O)[C@H](CC(C)C)NC(=O)[C@H](Cc1c[nH]cn1)NC(=O)CNC(=O)[C@@H](NC(=O)[C@H](C)NC(=O)[C@](C)(Cc1c[nH]c2ccccc12)NC(=O)[C@H](CCC(N)=O)NC(=O)[C@@H](Cc1ccccc1)NC(=O)CN1CCC(NC(=O)CN2CCN(CC(=O)O)CCN(CC(=O)O)CCN(CC(=O)O)CC2)CC1)C(C)C)C(N)=O [^177Lu-AMTG, ^177Lu-α-Me-L-Trp^8-RM2, metal not drawn] was 0.1
